Target: purified recombinant human Aggrecanase-2 (Ag2t-Phe628-Strep) (Homo sapiens)
Construct: the form used is denoted as Ag2t-Phe628-Strep (MW=41,737)
Sequence (Q9UNA0 262-628): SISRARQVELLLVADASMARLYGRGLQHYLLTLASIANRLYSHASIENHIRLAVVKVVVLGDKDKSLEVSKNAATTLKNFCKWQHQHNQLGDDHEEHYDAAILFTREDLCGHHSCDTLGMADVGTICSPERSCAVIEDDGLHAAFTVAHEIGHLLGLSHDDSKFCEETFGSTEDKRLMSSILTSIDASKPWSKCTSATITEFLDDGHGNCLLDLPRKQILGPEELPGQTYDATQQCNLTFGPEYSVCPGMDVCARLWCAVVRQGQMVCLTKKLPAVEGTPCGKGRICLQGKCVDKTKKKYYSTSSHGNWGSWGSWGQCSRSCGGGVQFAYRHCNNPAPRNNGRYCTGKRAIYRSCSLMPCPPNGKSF
Test: In vitro fluorescence screen for Aggrecanase-2 inhibitors
Format: biochemical
Conditions: Table 2; read-out: Agg 2 IC50
Could you please report measured IC50 for the items listed next?
Numbers only, in µM.

Entry COc1cc(CNC(=O)[C@H](CCC(=O)O)NC(=O)c2ccc(-c3ccc(C(C)C)cc3)cc2)cc(OC)c1OC [Example 17AA] — recorded IC50 = 5.7

Consider COc1cc(COc2ccc(-c3ccc(C(=O)N[C@@H](CCC(=O)O)C(=O)NCC45CC6CC(CC(C6)C4)C5)cc3)cc2)cc(OC)c1 [Example 19B] . Its measured IC50 is 0.59

Looking up COc1cccc(COc2ccc(-c3ccc(C(=O)N[C@@H](CCC(=O)O)C(=O)NCc4cc(OC)c(OC)c(OC)c4)cc3)cc2)c1 [Example 19H] , I see its IC50 listed as 0.158

Then there is this molecule:
GET /value?item= C[C@H](NC(=O)[C@H](CCC(=O)O)NC(=O)c1ccc2c(c1)Cc1ccccc1-2)c1ccccc1 &field=IC50 returns 1.16

---

Entries below carry reported IC50 on MMP-1 (Homo sapiens).
Sequence (P03956 100-469, species assumed): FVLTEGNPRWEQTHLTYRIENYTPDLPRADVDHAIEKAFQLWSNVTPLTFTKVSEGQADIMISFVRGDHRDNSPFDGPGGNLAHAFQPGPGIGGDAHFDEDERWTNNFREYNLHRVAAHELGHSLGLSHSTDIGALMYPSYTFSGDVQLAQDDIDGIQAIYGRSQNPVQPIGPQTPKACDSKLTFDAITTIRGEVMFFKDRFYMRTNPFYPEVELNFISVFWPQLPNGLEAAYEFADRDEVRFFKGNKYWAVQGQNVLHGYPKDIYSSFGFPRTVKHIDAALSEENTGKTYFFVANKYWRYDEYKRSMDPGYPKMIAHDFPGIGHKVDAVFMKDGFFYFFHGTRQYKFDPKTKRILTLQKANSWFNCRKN

IC50 reported for this compound CSc1ccc(CNC(=O)[C@H](CCC(=O)O)NC(=O)c2ccc(-c3ccccc3)cc2)cc1 [Example 8V] : > 100 µM

Quick note, IC50 for O=C(O)CC[C@H](NC(=O)c1ccc(-c2ccccc2)cc1)C(=O)NC1CCCCCCC1 [Example 8E] landed at > 200 µM

For this compound ( CCC(C)NC(=O)[C@H](CCC(=O)O)NC(=O)c1ccc(-c2ccccc2)cc1 (stereo partly drawn) [Example 8BBB] ), measured IC50 is > 200 µM

Each compound below has a recorded value; state its IC50.
1. COc1cccc(CCNC(=O)[C@H](CCC(=O)NO)NC(=O)c2ccc(-c3ccccc3)cc2)c1 [Example 33C]
2. O=C(O)CC[C@H](NC(=O)c1ccc(-c2ccccc2)cc1)C(=O)NCc1cccc(-c2cccs2)c1 [Example 10N]
3. COc1ccc(CNC(=O)[C@H](CCC(=O)O)NC(=O)c2ccc(-c3ccccc3)cc2)cc1OC [Example 8F]

1.5 µM
> 200 µM
> 200 µM

---

Tested on: bovine articular cartilage treated with Interleukin 1 alpha (IL-1α)
Test: Bovine articular cartilage explant cultures: inhibition of degradation of proteoglycan
Assay type: cell-based
Settings: Table 1, second of two columns headed bovine; inhibitory effect expressed as percentage; concentration not printed
Please provide measured bovine for the entries that follow.
Answers are plain numbers, in %.

Worked set:
Cc1cc(C)cc(-c2ccc(C(=O)N[C@@H](CCC(=O)O)C(=O)NCc3ccccc3)cc2)c1 [Example 13A] has a reported bovine of 18

bovine for O=C(O)CC[C@H](NC(=O)c1ccc(-c2ccccc2)cc1)C(=O)NCCCCc1ccccc1 is 40

Reported bovine ( O=C(O)CC[C@H](NC(=O)c1ccc(-c2ccccc2)cc1)C(=O)NCC1CC1 ) = 26

Form field bovine, entry COc1cc(CNC(=O)[C@H](CCC(=O)O)NC(=O)c2ccc(-c3ccccc3)cc2)cc(OC)c1 : 71

For each of the compounds below, note its bovine.
1. COc1cccc(CNC(=O)[C@H](CCC(=O)O)NC(=O)c2ccc(-c3ccccc3)cc2)c1
2. COc1ccc(CNC(=O)[C@H](CCC(=O)O)NC(=O)c2ccc(-c3ccccc3)cc2)cc1OC
3. CN(C)c1cccc(CNC(=O)[C@H](CCC(=O)O)NC(=O)c2ccc(-c3ccccc3)cc2)c1
4. O=C(O)CC[C@H](NC(=O)c1ccc(-c2ccccc2)cc1)C(=O)NC1CCCC1

24
56
0
39
